Entries and their Kd values follow.
# testedOn: T1, human CD47 expressed on the cell surface (human, UniProt Q08722 19-323)
# T1 construct: whole, on cells; also called CD47 on SW780, human red blood cells, HT1080, HCT116, Raji, L450cy and patient blood cells
# experimentSummary: saturating cellular FACS on L450cy lymphoma cells

{"binder": "hB6H12.4 (antibody, V domains shown, also called hvH1/hvK4; antibody 4 (bin A)) VH: EVQLLESGGGLVQPGGSLRLSCAASGFTFSGYGMSWVRQAPGKRLEWVATITSGGTYTYYPDSVKGRFTISRDNSKNTLYLQMNSLRAEDTAIYFCARSLAGNAMDYWGQGTLVTVSS VL: DIQMTQSPSSLSASVGDRVTLTCRASQTISNYLAWYQQKPGKVPKLLIKFASTLQSGVPSRFSGSGSGSDFTLTISSLQPEDVATYYCQNGHGFPRTFGQGTKLEIKR", "unitsOfMeasure": "nM", "Kd": 0.9}
{"binder": "hB6H12.2 (antibody, V domains shown, also called hvH1/hvK2; antibody 2 (bin A)) VH: EVQLLESGGGLVQPGGSLRLSCAASGFTFSGYGMSWVRQAPGKRLEWVATITSGGTYTYYPDSVKGRFTISRDNSKNTLYLQMNSLRAEDTAIYFCARSLAGNAMDYWGQGTLVTVSS VL: EIVMTQSPDFQSVTPKEKVTLTCRASQTISDYLHWYQQKPDQSPKLLIKFASQSISGVPSRFSGSGSGTDFTLTINSLEAEDAATYYCQNGHGFPRTFGQGTKLEIKR", "unitsOfMeasure": "nM", "Kd": 0.9}
{"binder": "mB6H12 (antibody, V domains shown, Murine parental antibody; also called murine B6H12; mouse B6H12) VH: EVQLVESGGDLVKPGGSLKLSCAASGFTFSGYGMSWVRQTPDKRLEWVATITSGGTYTYYPDSVKGRFTISRDNAKNTLYLQIDSLKSEDTAIYFCARSLAGNAMDYWGQGTSVTVSS VL: DIVMTQSPATLSVTPGDRVSLSCRASQTISDYLHWYQQKSHESPRLLIKFASQSISGIPSRFSGSGSGSDFTLSINSVEPEDVGVYYCQNGHGFPRTFGGGTKLEIKR", "unitsOfMeasure": "nM", "Kd": 1.2}
